Protocol description: yeast display, Sf9 membrane polyspecificity reagent, FACS + sequencing; frameworks hold sequencing errors
Measure name: polyreactivity (PSR sort gate)

QVQLVESGGGLVQAGGSLRLSCAASGFIFPNNAMGWYRHAPGKERELVARISYGGGDTHYADSVKGRFTISRDNAKNTVYLQMNSLKPEDTAVYYCAVKDGQDDYWGQGTQVTVSS : low polyreactivity
QVQLVESGGGLVQSGGSLRLSCAASGSIFDFYAMGWHRQAPGKERELVATITASGGSTYYADSVKGRFTISRDNAKITVYLQMNSLKPVDTAVYYCNADSVYWGQGTQVTVSS : low polyreactivity

---

Protocol description: yeast display, Sf9 membrane polyspecificity reagent, FACS + sequencing; frameworks hold sequencing errors
Measure name: polyreactivity (PSR sort gate)

QVQLVESGGGLVQAGGSLRLSCAASGRTFGYNAMGWYRQAPGTERELVAAIRTIGDSTYYADSVKGRFTISRDNAKNTVYLQMNILKPVDTSVYYCAARKLRSRFDYWGQGTQVTVSS : high polyreactivity
QVQLVESGGGLVQAGGSLRLSCASSGFTFRYYAMGWYRQAPGKERELVAAITGNGGSTYYADSVKGRFTISRDNAKNTVYFQMNSLKPEDTAVYYCNKPYFTASGDRFGYWGQVTQVTVSS : high polyreactivity

---

Protocol description: yeast display, Sf9 membrane polyspecificity reagent, FACS + sequencing; frameworks hold sequencing errors
Measure name: polyreactivity (PSR sort gate)

QVQLVESGGGLVKAGGSLRLSCAASGFTFYLNAMGWSRQAPGKERELVAGISWRGGRTYYADSVKGRFTISRDNAKITVYVQLNSLKPEDTAVYYCAAVTYSFQKTDYYWGQGTQVTVSA : high polyreactivity
QVQLVESGGGLVQAGGSLRLSCAASGRIFLYNAMGSYRQAPGKVRELVASISSGVTTNYADSVKGRFTISRDNAKKTVYLQMNSLKPEDTAVYYCAADGQYSVIVKYDSWGQGTQVTVSS : low polyreactivity
QVQLVESGGGLVQAGGSLRLSCAASGSTFAEYAMGLYRQAPGKERELVAAISRRGGSTYYADSVKGRFTFSRDNAKYSVYLQMNSLKPEDTAVYYCATDGYTPYRWLWWLMDYWGQGTQVTVSS : high polyreactivity
QVQLVESVGGLVQAGGSLRLSCAASGSIRSYAIGWYRQAPGKERELVAAITRSGGSTYYADSVKGRFTISRDNAKNTVYLQMISLKPEDTAVYYCAARYTYSYPLFGSWGQGTQVTVSS : high polyreactivity
QVQLVESGGGLVQAGGSLRLSCAASGSTFTKYAMGWYRQAPGQERELVAAITASGGNTYYADSVKGRFTISRDNAKNTVYLQMNSLKPEDTAVYSCAAVTGLFYHPFYKYNYWGQGTQVTVSS : high polyreactivity
QVQLQESGGGLVQACGSLRLSCAASGYIFSHQYMGWYRQAPGKERELVASISPGATTNYADSVKGRFTISRDNAKNTVYLQMNSLKPEDTAVYYCARRYRPKYGYWGQGTQVTVSS : high polyreactivity
QVQLVESGGGLVQAGGSLRLSCAASGITFYDNVMGWYIQAPGKERELVAAITSGGSTNYADSVKGRFTISRDNAKNTVYLQMNSLKPEDTAVYYCAAQPRVDYEFPYRYGYWGQGTQVTVSS : low polyreactivity
QVQLVESGGGLVQAGGSLRLSCAASGFTFVYNAMGWYRPAPGKERELVAAITSGGNTYYADSVKGRFTISRDNAKNTVYLQMNSLKPEDTAVYYCAKRGYGRYYAYDYWGQGTQVTVSS : high polyreactivity

Item QVQLVESGGGLVQAGGSLRLSCAASGSLFKRNAMGWYRQAPGKERELVAAITSSGGRTYYADSVKGRFTISRDNAKNTVYLLMNSLKPEDTAVYYCNKVRAGRDERRAGDYWGQGTQVTVSS has what recorded polyreactivity (PSR sort gate)? high polyreactivity

Item QVQLVESGGGLDQAGGSLRLSCAASGRIFVFYTMAWYRQAPGKERDLVAAITKSGGSTYYADSVKGRFTISRDNAKNTVYFQMNSLKPEDTAVYYCATRDSPRTKNGYYYWGQGTQVTVSS has what recorded polyreactivity (PSR sort gate)? high polyreactivity

Item QVQLVESGGGLVQAGGSLRLSCAASGSTYTGYTMGWYRQAPGKERELVAAITYRGGSTYYADSVKGRITISRDNAKNTVYLQMNSLKREDTEVYYCAARSFFIMYYWGQGTQVTVSS has what recorded polyreactivity (PSR sort gate)? low polyreactivity

Item QVQLVESGGGIVQAGGSLRLSCAASGRTFRSNVMGWYRQAPGKERELVAAISWRGGNTHYADSVKGRFTISRDNAKNTVYLQMNSLKREDTAVFYCAARVTSRRDPDQIHGYWGQGTQVTVSS has what recorded polyreactivity (PSR sort gate)? high polyreactivity

Item QVQLVESGGGLVQAGGSLRLSCAASGRTFYPYVMGWYRQSPGKERELVASISWSGGSTYYADSVKGRFTFSRDNAKNSVYLQMNSLKPEDTAVYYCAALWPYGYWGQGTQVTVSS has what recorded polyreactivity (PSR sort gate)? low polyreactivity

Item QVQLVESGGGLVQAGGSLRLSCAASGRTFTYYAMGWYRQAPGKERELVAAITGRGGRTYYADSVKGRFTISRDIAKNTVYLQMNSLKREDTAVYYCATRDPYYSSEYTYGYWGQGTQVTVSS has what recorded polyreactivity (PSR sort gate)? high polyreactivity

---

Protocol description: yeast display, Sf9 membrane polyspecificity reagent, FACS + sequencing; frameworks hold sequencing errors
Measure name: polyreactivity (PSR sort gate)

QVQLEESGGGLVQAGGSLRISCAASGFIYRDYDMGWYRQAPGKERELVAAISLSGGSTYYADSVKGRFTISRDNAKNTVYLQMNSLKPEDTAVYYCAAVSAYEGNYWGQGTQVTVSS : high polyreactivity
QVQLVESGVGLVQAGGSLRLSCAASGGIFAVYAMGWYIQAPGKERELVAAITWRGGSTRYADSVKGRFTISRDNAKNTVYLQMNSLKPEDTAVYYCAVRSTGYPSRYYYWGQGTQVTVSS : high polyreactivity

---

Protocol description: yeast display, Sf9 membrane polyspecificity reagent, FACS + sequencing; frameworks hold sequencing errors
Measure name: polyreactivity (PSR sort gate)

QVQLVESGGGLVQAGGSLRLSCAASGSTLRRYAMGWYRQAPGKERDLVAAITSRGTDTYYADSVKGRFTISRDNAKNTVYLQMNSLKPEDTAVYYCAASWVAGGHYGYDYWGQGTQVTVSS : high polyreactivity
QVQLVESGGGLVQAGGSLRLSCAASGRTFEDYTMGWYRQAPGKERELVAAITGGGSTNYADSVKGRFTISRDNAKNTVYLQMNSLKPEDTAVYYCAARRKGGHISYGYDYWGQGTQVTVSS : high polyreactivity

---

Protocol description: yeast display, Sf9 membrane polyspecificity reagent, FACS + sequencing; frameworks hold sequencing errors
Measure name: polyreactivity (PSR sort gate)

Worked examples follow.
QVQLVESGGGLVQAGGSLRLSCAASGSTFDIYAMGWYRQAPGKERELVAAIRYSGGSTYYADSVKGRFTISRDNAKYTVYLQMNSLKPEDTAVYYCAADPYQLWHYYYFGMDYWGQGTEVTVSS : low polyreactivity
QVQLVESGGGLVQAGGSLRLSCAASGFIFVRNAMGLYRQAPGKEREFVAAITRSGGSTYYADSVKGRFTISRDNAKNTVYLQMNSLKPEDTAVYYCAARIHGSWSFDYWGQGTQVTVSS : low polyreactivity
QVQLVESGGGLVQAGGSLRLSCAASGITIVRYAMGWYRQAPGKERELVAAINRSGGSTYYADSVKGRFTISRDNAKNTVYLQMNSLKPEDTAVYYCAARLYGKYDPPGYYYWGQGTQVTVSS : high polyreactivity
QVQLVESGGGLVQAGGSLRLSCAASGSILYIYAMGWYSQAPGKERELVASINSGGSTNYADSVKGRFTISRDNAKNTVYLQMNSLKPEDTAVYYCNADTIPDGEDRYDYWGQGTQVTVSS : low polyreactivity
QVQLVESGGGLVQAGGSLRLSCAASGITFSYNAMGWYRQAPGKERELVAAISDIGGSTYYADSVKGRFTISRDNAKITVYLQMNSLKPEDTAVYYCAADEYYQDEYDYWGQGTQVTVSS : low polyreactivity
QVQLVESGGGLVQAGGSLRLSCAASGRTFIINTMGWYRQAPGKERELVAAISKNGATTNYADSVKGRFTISSDNAKNSVYLQMNSLKPEDTAVYYCNARYSGYLRLDYWGQGTQVTVSS : low polyreactivity
QVQLVESGGGLVQAGGSLRLSCAASGNIFDVYAMGWYRQAPGKERELVAAISRSGSSTYYADSVKGRFTISRDNAKNTVYLQMNSLKQEDTAVYYCAAKISLGQRTYYYWGQGTQVTVSS : high polyreactivity
QVQLVESGGGLVQAGGSHRISCAASGLTFFRNAMGWYRQAPGKERELVATITSTSSTNYADSVKGRFTISRDNAKNKVYLQMYSVKPEDTAVYYCNARVYYKYVGRMYYWGQGTQVTVSS : high polyreactivity

Item QVQLVESGGGLVQAGGSLRLICDASGIYYRNAMGWYRQAPGKEREMVAAISWSGGSTYYADSVKGRFTISRDNAKNTVYLQMNSLNPEDTAVYYCAAVGGRYPSNVLGYYYWGQGTQVTVSS has what recorded polyreactivity (PSR sort gate)? high polyreactivity

Item QVQLVESVGGLVQAGGSLLLSCAASGGIFWVYALGWYRQAPGKVRELVAAISYDTTSTYYADSVKGRFTISRDNAKNTVYLQMNRLKPEDTAVYYCNKTTLLTVEYDYGGQGTQVTVSS has what recorded polyreactivity (PSR sort gate)? low polyreactivity

Item QVQLVESGGGLVQAGGSLRLSCPASGSTFRSNVMGWYRQAPGKERELVAAITSSGGSTYYADSVKGRFTISRDNAKNTVYLQMNSLKPEDTAVYYCAAVGYGWDPYKRLVRHSYDSWGQGTQVTVSS has what recorded polyreactivity (PSR sort gate)? low polyreactivity
